The origin of these recorded values is patent US20220409526A1.

- measurement_notes: in vitro
- Format: cell-based, human
- setup_conditions: human
reported_endpoint: viability at 16 h, 500 μM

Query: viability at 16 h, 500 μM; subject: Oc1ccc(O)cc1 [HQ, hydroquinone]
~60%
